Value source: paper PMC9110341

Target: T1, NrdR R17A (Streptomyces coelicolor M145, UniProt O69980 1-182, R17A)
T1 sequence: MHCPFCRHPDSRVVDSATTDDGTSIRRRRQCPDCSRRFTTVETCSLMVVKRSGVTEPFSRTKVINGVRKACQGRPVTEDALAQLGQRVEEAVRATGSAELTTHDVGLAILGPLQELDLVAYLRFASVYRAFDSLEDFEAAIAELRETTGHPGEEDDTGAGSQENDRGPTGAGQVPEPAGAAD
Assay: MST; 1 mM dATP + 1 mM ATP; MST: 25 mM Tris-HCl pH 7.6, 150 mM NaCl, 10 mM MgCl2, 5% glycerol, 1 mM DTT, 0.05% Tween-20, nucleotides 1 mM each, 10 nM Cy5-dsDNA, room temperature
Settings: protein: recombinant; tags: C-terminal His6 (pET30a); label: 5'-Cy5 on sense strand; blunt
Experimental Endpoint: binding result

Binder	Experimental Endpoint	Reported Measurement
nrdRJ G9/C18 (dsDNA) DNA 1: GCCAATCCGCACATCTACTGGTTGGATAGCGTGAGCAGCCCACAAGTTGTGGTCCCC DNA 2: GGGGACCACAACTTGTGGGCTGCTCACGCTATCCAACCAGTAGATGTGCGGATTGGC	binding result	no binding
nrdRJ T9/T18/T40/T49 (dsDNA) DNA 1: GCCAATCCTCACATCTATTGGTTGGATAGCGTGAGCAGCTCACAAGTTTTGGTCCCC DNA 2: GGGGACCAAAACTTGTGAGCTGCTCACGCTATCCAACCAATAGATGTGAGGATTGGC	binding result	no binding
nrdRJ promoter 57 bp (dsDNA) DNA 1: GCCAATCCCCACATCTAGTGGTTGGATAGCGTGAGCAGCCCACAAGTTGTGGTCCCC DNA 2: GGGGACCACAACTTGTGGGCTGCTCACGCTATCCAACCACTAGATGTGGGGATTGGC	binding result	no binding
